Tested on: MDAMB231
test_summary: Cancer cell growth inhibition
Format: cell-based
experimental_conditions: Homo sapiens, MDA-MB-231; MDAMB231 (breast), 72 hr treatment
pIC50: −log10 of the molar value.
Below, each entry is listed with its recorded pIC50.

# example entries with known answers
smiles_str | pIC50
CC(C)(O)Cc1cc(-c2csc(-c3ccc(NS(C)(=O)=O)cc3Cl)c2)ccn1 | < 5.00
CS(=O)(=O)Nc1ccc(-c2cc(-c3ccnc4c3OCCO4)cs2)c(Cl)c1 | < 5.00

As a next step, examine the molecule that follows.
Determine its reported pIC50: CC(C)(CO)c1cc(-c2csc(-c3ccc(NS(C)(=O)=O)cc3Cl)c2)ccn1
< 5.00
